target: Sphingosine 1-phosphate receptor 1 (Homo sapiens); assay: S1P1 receptor antagonists, human, counter-screen for S1P4 antagonist project, cell-based (AID 1564); settings: cell-based S1P1 antagonist counterscreen, at 4.98 µM, hits give high values;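 further: receptor stimulated with S1P near its EC80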
The list shows a part of the results.
Rule: True for inhibition not less than 40%, False for anything less.

Example entries begin here.
INSERT INTO assay_data (compound, assigned_category) VALUES
  ('Cc1cc2oc(C(=O)Nc3c(C)n(C)n(-c4ccccc4)c3=O)c(C)c2cc1Cl', 'False'),
  ('CC1CC2=C(CC1/C=N/NC(N)=S)C(C)(C)CCC2 (stereo not drawn)', 'False'),
  ('C=CS(=O)c1sc(Cl)c(N2CCOCC2)c1[N+](=O)[O-] (stereo not drawn)', 'False');

Query: State whether the measured inhibition reaches 40%, counting equality as reaching it, for COc1ccc(-c2csc(NC3OC(=O)c4ccccc43)n2)cc1 (stereo not drawn)
Reply: False

Query: Can you handle COc1ccc(NC(=O)/C(Cl)=C(/Cl)S(=O)Cc2ccc(C)cc2)cn1 (stereo not drawn) next?
Reply: True

Query: Can you handle O=C(/C=C/c1ccc(Cl)cc1Cl)c1cccnc1 next?
Reply: False

Query: Can you handle O=C1C=C(c2ccc(Cl)cc2)C(=O)N1Nc1ccccc1 next?
Reply: True

Query: Can you handle O=C(/C=C/c1ccc(Cl)c([N+](=O)[O-])c1)c1ccc(O)cc1 next?
Reply: False

Query: Can you handle O=C(CC(O)(C(F)(F)F)C(F)(F)F)Nc1ccc(Cl)c(Cl)c1 next?
Reply: False

Query: Can you handle O=C(Nc1ccccc1)c1nnsc1S(=O)(=O)c1ccc(Cl)cc1 next?
Reply: False

Query: Can you handle CC(C)c1ccc(N2CCN(C(=O)c3ccccc3NC(=O)/C=C(\C(=O)O)c3ccccc3)CC2)cc1 next?
Reply: True

Query: Can you handle C[C@@H](NC(=O)OC(C)(C)C)c1nnc(S(=O)(=O)Cc2ccccc2)o1 next?
Reply: False
